This collection of values is drawn from PubChem BioAssay AID248.

system: L1210 leukemia ip in BDF1 mice, survival T/C; test: NCI In Vivo Anticancer Drug Screen. Data for tumor model L1210 Leukemia (intraperitoneal) in B6D2F1 (BDF1) mice; settings: endpoint: mean survival time; dose: 50.0 mg/kg/injection; schedule: Q01DX001 (ip); vehicle: carboxymethylcellulose (CMC); higher = longer survival
Inconclusive results and toxic doses are left out.
measured metric: T/C

Take a look at these entries with their results.
>>> test_value("C[C@]12CC[C@H](O)C[C@H]1CC[C@@H]1[C@@H]2CC[C@]2(C)[C@@H](C3=CC(=O)OC3)[C@@H](O)C[C@]12O")
"101 % of control"
>>> test_value("S=c1nc[nH]c2c1ncn2CCc1ccccc1")
"115 % of control"
>>> test_value("COc1ccc(C2(O)C3CCC(C3)C2(C)C)cc1 (centres undefined)")
"89 % of control"

q: Complete the entry with T/C for O=C(Nc1cccc(Cl)c1)Nc1ccc(Cl)c(C(F)(F)F)c1
a: 94 % of control

q: Complete the entry with T/C for O=P(NO)(Oc1ccccc1)Oc1ccccc1
a: 101 % of control

q: Complete the entry with T/C for CN(C)CCC(c1ccccc1)(c1ccccc1)c1ccccc1
a: 92 % of control

q: Complete the entry with T/C for c1cc[n+]2c(c1)CC[n+]1ccccc1CC2
a: 106 % of control

q: Complete the entry with T/C for Cc1cccc(NC(=O)N(CCCl)N=O)c1
a: 86 % of control

q: Complete the entry with T/C for CCCCCCCC(=O)NCCCCC
a: 98 % of control
